Reference source for all entries: ChEMBL document CHEMBL1130649

- procedure.details: Half-life in total CEM cell extract at Step 1
- Assay type: ADME, CCRF-CEM
- settings: human
# maps each entry to its half-life
A number alone suffices; assume h.

[Q] Given Cc1cn([C@H]2C[C@H](N=[N+]=[N-])[C@@H](COP(=O)(OCCSC(=O)C(C)(C)C)Oc3ccccc3)O2)c(=O)[nH]c1=O (some centres not stated) , state its recorded half-life.
[A] 1.2

Next item in the queue.
[Q] What value of half-life has been recorded for this entry: Cc1cn([C@H]2C[C@H](N=[N+]=[N-])[C@@H](COP(=O)(OCCSC(=O)C(C)(C)C)Oc3ccc(CC(N)C(=O)O)cc3)O2)c(=O)[nH]c1=O.Cl (some centres not stated)
[A] 1.4
